Test: Retention time of the compound in Beagle dog urine treated with [14C]-AMG 221 at 2 mg/kg, po measured over 24 hrs by LC-MS/HPLC radiometric analysis
Type: ADME, organism-based, Canis lupus familiaris
Design: dose 2 mg/kg, route oral
Conditions: in vivo
Quick rule for you: Retention_time under 30 min gets yes, anything else gets no.

{"columns": ["compound", "answer.label"],
 "data": [
  ["CC(CO[C@@H]1O[C@H](C(=O)O)[C@@H](O)[C@H](O)[C@H]1O)[C@]1(C)SC(N[C@H]2C[C@@H]3CC[C@H]2C3)=NC1=O (stereo partly specified)", "yes"],
  ["CC(C)[C@]1(C)SC(N[C@H]2C[C@H]3C[C@@H]2C[C@@H]3O[C@@H]2O[C@H](C(=O)O)[C@@H](O)[C@H](O)[C@H]2O)=NC1=O", "yes"],
  ["C[C@@H](CO)[C@]1(C)SC(N[C@H]2C[C@H]3C[C@@H]2[C@H](O)C3)=NC1=O", "yes"],
  ["C[C@@H](C(=O)O)[C@]1(C)SC(N[C@H]2C[C@@H]3CC[C@H]2C3)=NC1=O", "no"],
  ["CC(O)(CO)[C@]1(C)SC(N[C@H]2C[C@@H]3CC[C@H]2C3)=NC1=O (stereo partly specified)", "no"]
]}
